system tested: CYP2D6 (Homo sapiens)
parameter: pKi
Note: pKi values are expressed as the negative base-10 logarithm of concentration in M.

Input: Give pKi for this entry on CYP2D6 (Homo sapiens): CCOC(=O)C1=C[C@]2(CC)CCCN3CCc4c(n1c1ccccc41)[C@@H]32 [Vinpocetine, ethyl apovincaminate]
Output: 4.59

----------
system tested: CYP2D6 (Homo sapiens, UniProt P10635)
Sequence (P10635 whole entry): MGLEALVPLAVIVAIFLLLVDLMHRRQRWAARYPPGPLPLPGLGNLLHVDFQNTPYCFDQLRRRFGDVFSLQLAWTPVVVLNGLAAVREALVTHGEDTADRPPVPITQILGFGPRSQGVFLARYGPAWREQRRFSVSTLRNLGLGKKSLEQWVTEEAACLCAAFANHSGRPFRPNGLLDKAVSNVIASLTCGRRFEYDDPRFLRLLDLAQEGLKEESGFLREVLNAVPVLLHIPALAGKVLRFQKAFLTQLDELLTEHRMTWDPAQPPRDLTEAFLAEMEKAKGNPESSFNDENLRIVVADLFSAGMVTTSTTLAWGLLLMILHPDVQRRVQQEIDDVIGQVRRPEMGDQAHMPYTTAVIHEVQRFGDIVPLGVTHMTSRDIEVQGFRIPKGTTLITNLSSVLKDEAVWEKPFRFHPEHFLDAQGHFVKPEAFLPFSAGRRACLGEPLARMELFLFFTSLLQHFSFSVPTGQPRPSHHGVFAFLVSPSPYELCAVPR
assay method text: Reversible inhibition and enzyme kinetics of CYP2D6 in pooled HLM (dextromethorphan to dextrorphan)
Format: in vitro ADME
Design: The reaction was initiated by the addition of HLM (0.6 mg/mL protein); tissue Corning Life Sciences (Cambridge, MA, USA); host or cells: pooled human liver microsomes, 25 donors, mixed gender
condition set: human, pooled human liver microsomes, pH 7.4, probe dextromethorphan (to dextrorphan); pooled HLM, dextromethorphan as probe substrate
parameter: IC50 at 20 min (µM)
The response must be a number in µM with no trailing unit.

Input: Give IC50 at 20 min for the following compound: CCOC(=O)C1=C[C@]2(CC)CCCN3CCc4c(n1c1ccccc41)[C@@H]32 [Vinpocetine, ethyl apovincaminate]
Output: 19

----------
system tested: P-gp (Homo sapiens, UniProt P08183)
Construct: host or cells: hMDR1-MDCK-II (canine kidney cells transfected with human MDR1)
Sequence (P08183 whole entry): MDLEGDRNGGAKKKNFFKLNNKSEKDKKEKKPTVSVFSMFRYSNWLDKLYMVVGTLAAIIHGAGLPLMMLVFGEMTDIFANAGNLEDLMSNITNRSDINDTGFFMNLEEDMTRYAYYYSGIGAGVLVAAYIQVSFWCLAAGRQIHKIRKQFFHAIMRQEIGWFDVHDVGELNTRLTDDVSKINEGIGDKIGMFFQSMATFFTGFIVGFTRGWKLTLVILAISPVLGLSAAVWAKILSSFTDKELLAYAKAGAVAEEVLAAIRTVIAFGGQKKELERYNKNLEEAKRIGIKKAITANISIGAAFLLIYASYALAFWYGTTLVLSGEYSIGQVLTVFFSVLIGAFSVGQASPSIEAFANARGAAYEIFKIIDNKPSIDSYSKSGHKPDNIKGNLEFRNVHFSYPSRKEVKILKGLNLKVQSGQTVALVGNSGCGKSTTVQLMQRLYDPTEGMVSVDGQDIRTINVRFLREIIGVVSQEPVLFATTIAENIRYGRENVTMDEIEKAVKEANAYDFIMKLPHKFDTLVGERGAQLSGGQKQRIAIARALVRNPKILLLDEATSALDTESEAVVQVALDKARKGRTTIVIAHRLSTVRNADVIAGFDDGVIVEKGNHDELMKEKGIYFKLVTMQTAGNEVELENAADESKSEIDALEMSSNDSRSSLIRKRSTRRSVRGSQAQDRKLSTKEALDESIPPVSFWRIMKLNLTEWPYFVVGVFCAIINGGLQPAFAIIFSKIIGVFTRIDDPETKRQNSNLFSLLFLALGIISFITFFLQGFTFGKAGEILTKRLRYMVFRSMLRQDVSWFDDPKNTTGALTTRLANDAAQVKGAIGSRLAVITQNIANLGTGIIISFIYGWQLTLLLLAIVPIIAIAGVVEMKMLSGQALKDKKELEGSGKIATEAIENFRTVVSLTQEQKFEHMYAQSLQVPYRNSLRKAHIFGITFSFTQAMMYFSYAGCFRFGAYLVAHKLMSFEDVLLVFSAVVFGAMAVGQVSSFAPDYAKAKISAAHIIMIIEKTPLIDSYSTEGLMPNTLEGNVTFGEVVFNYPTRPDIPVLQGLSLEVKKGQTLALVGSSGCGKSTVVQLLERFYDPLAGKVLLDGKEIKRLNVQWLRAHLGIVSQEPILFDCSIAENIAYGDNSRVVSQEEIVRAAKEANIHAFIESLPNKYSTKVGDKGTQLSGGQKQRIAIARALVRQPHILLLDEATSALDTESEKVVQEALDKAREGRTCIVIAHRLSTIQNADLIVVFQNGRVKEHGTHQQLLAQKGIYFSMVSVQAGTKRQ
assay method text: P-gp inhibition, calcein-AM uptake in hMDR1-MDCK-II and MDCK-II cells
Assay type: cell-based
condition set: calcein-AM 1 µM, mean ± SD of three experiments
parameter: EC50

Input: Give EC50 for the following molecule: CCOC(=O)C1=C[C@]2(CC)CCCN3CCc4c(n1c1ccccc41)[C@@H]32 [Vinpocetine, ethyl apovincaminate]
Output: 8 µM

----------
system tested: CYP2D6 (Homo sapiens, UniProt P10635)
assay method text: Reversible (co-incubation) and time dependent (pre-incubation) inhibition of recombinant CYP2D6, fluorescent substrate AMMC
Format: in vitro ADME
Set-up: purchased BD Gentest (Woburn, MA, USA)
condition set: recombinant enzyme, co-incubation (reversible inhibition), mean ± SD of three experiments; read-out: CYP2D6 (recombinant) IC50 Co-incubation
parameter: pIC50
Note: pIC50 values are expressed as the negative base-10 logarithm of concentration in M.

Input: Give pIC50 for the following compound: CCOC(=O)C1=C[C@]2(CC)CCCN3CCc4c(n1c1ccccc41)[C@@H]32 [Vinpocetine, ethyl apovincaminate]
Output: 5.19

Where these numbers come from: paper PMC5533163
